- target: rh integrin α4β7 (R&D Systems #5397-A30) (human) (UniProt P13612)
- testSummary: α4β7-MAdCAM competition ELISA
Bridge positions count the residues as written; N and C are the ends. Square brackets hold non-standard residues; d marks the D form. Ends that are not written are not given here. 2Nal = N[C@@H](Cc1ccc2ccccc2c1)C(=O)O; d1Nal = N[C@H](Cc1cccc2ccccc12)C(=O)O; NMeR = CN[C@@H](CCCNC(=N)N)C(=O)O; β3hE = N[C@@H](CCC(=O)O)CC(=O)O; Pen = CC(C)(S)[C@H](N)C(=O)O; dNMeK = CN[C@H](CCCCN)C(=O)O
So I've got a bunch of binders here, and I need their IC50 values.

Query: Could you share which IC50 value was measured for [Pen][NMeR]SDTL[Pen][2Nal]E (disulfide 1-7 (inferred); not fully specified (bridges); printed as Cyclo-[Pen-(N-Me-R)-S-D-T-L-Pen-(2-Nal)-E], disulfide) [SEQ ID NO 143] ?
Response: 0.25 µM

Query: And the next one, Ac-[Pen][NMeR]SDTL[Pen][2Nal][dE][dK]-NH2 (disulfide 1-7 (inferred); also: homodimer via DIG linker) [SEQ ID NO 33] ?
Response: < 0.01 µM

Query: Likewise for Ac-[Pen][NMeR]SDTL[Pen][2Nal]E[dK]-NH2 (disulfide 1-7 (inferred)) [SEQ ID NO 210] ?
Response: 0.011 µM

Query: Now the same for Ac-[Pen][NMeR]SDTL[Pen][2Nal]E[dNMeK]-NH2 (disulfide 1-7; SMILES CC(=O)N[C@@H]1C(=O)N(C)[C@@H](CCCNC(=N)N)C(=O)N[C@@H](CO)C(=O)N[C@@H](CC(=O)O)C(=O)N[C@@H]([C@@H](C)O)C(=O)N[C@@H](CC(C)C)C(=O)N[C@H](C(=O)N[C@@H](Cc2ccc3ccccc3c2)C(=O)N[C@@H](CCC(=O)O)C(=O)N(C)[C@H](CCCCN)C(N)=O)C(C)(C)SSC1(C)C) [SEQ ID NO 15]
Response: < 0.01 µM

Query: Try this binder too: Ac-[Pen][NMeR]SDTL[Pen][d1Nal]E[dK]-NH2 (disulfide 1-7; SMILES CC(=O)N[C@@H]1C(=O)N(C)[C@@H](CCCNC(=N)N)C(=O)N[C@@H](CO)C(=O)N[C@@H](CC(=O)O)C(=O)N[C@@H]([C@@H](C)O)C(=O)N[C@@H](CC(C)C)C(=O)N[C@H](C(=O)N[C@H](Cc2cccc3ccccc23)C(=O)N[C@@H](CCC(=O)O)C(=O)N[C@H](CCCCN)C(N)=O)C(C)(C)SSC1(C)C) [SEQ ID NO 10]
Response: > 0.01 µM

Query: Next binder: Ac-[Pen][NMeR]SDTL[Pen][2Nal]E[dK]-NH2 (disulfide 1-7 (inferred); also: homodimer via DIG) [SEQ ID NO 212]
Response: 0.002 µM

Query: Entry Ac-[Pen][NMeR]SDTL[Pen][2Nal][dE][dK]-NH2 (disulfide 1-7 (inferred); also: homodimer via DIG linker) [SEQ ID NO 29] please
Response: < 0.01 µM

Query: What do you get for Ac-[Pen][NMeR]SDTL[Pen][2Nal][β3hE][dK]-NH2 (disulfide 1-7 (inferred); also: homodimer via DIG) [SEQ ID NO 137] ?
Response: < 0.01 µM
